# ASSAY SYSTEM: human orexin-2 receptor (Homo sapiens (Human))
# Sequence (O43614 whole entry): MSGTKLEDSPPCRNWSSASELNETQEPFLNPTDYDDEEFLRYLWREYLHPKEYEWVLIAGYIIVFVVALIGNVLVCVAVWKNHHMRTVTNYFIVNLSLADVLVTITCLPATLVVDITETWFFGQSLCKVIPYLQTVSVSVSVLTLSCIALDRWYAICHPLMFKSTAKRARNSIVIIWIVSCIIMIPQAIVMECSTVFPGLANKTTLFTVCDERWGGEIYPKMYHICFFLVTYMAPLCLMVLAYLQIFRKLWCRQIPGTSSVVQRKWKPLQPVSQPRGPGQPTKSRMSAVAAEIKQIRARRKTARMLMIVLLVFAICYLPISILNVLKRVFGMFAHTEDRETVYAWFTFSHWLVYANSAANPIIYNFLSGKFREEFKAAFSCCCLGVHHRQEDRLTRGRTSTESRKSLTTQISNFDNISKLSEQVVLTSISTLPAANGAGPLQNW
# EXPERIMENT SUMMARY: In vitro assay: intracellular calcium measurements (FLIPR), antagonistic activity
# TEST CONDITIONS: CHO cells expressing human orexin-2 receptor, orexin-A agonist, geometric mean, read-out: IC50 Ox2
pIC50: −log10 of the molar value.
OBSERVABLE: pIC50

{"columns": ["MOLECULE", "ASSAY SYSTEM", "pIC50"],
 "data": [
  ["Cc1nc(C(=O)N2C[C@H](F)C[C@H]2c2nc3c(C)c(Cl)ccc3[nH]2)c(-c2cccc(Cl)c2)s1 [Ex. 2.10]", "human orexin-2 receptor (Homo sapiens (Human))", 8.10],
  ["C[C@@]1(c2nc3cc(C(F)(F)F)c(Cl)cc3[nH]2)CCCN1C(=O)c1ccccc1-n1nccn1 [Ex. 5.142]", "human orexin-2 receptor (Homo sapiens (Human))", 7.62],
  ["Cc1cc(C(=O)N2CCC[C@@]2(C)c2nc3cc(F)c(Br)cc3[nH]2)c(-n2nccn2)cc1C [Ex. 5.127]", "human orexin-2 receptor (Homo sapiens (Human))", 8.22]
]}

[I] Cc1ccccc1-c1nc(C(=O)N2CCC[C@@]2(C)c2nc3cc(Cl)c(C(F)(F)F)cc3[nH]2)c(-c2ccc(F)cc2)s1 [Ex. 5.286]
[II] CSc1cccc2nc([C@@H]3CCCN3C(=O)c3nccnc3-c3cc(C)cc(F)c3)[nH]c12 [Ex. 1.74]
[III] C[C@@]1(c2nc3cc(F)c(Br)cc3[nH]2)CCCN1C(=O)c1c(F)cccc1-n1nccn1 [Ex. 5.123]
[IV] Cc1ccc(-n2cccn2)c(C(=O)N2CCC[C@@]2(C)c2nc3cc(C(F)(F)F)c(Cl)cc3[nH]2)c1 [Ex. 5.138]
[V] Cc1ccc2[nH]c([C@]3(C)CCCN3C(=O)c3ccccc3-c3ccccc3F)nc2c1C [Ex. 5.121]
-- ask In this exercise, place the 5 molecules in ascending sequence of their recorded pIC50. Your task in answering is to list the labels in the requested order.
-- reply I, III, II, V, IV
(I: 5.34, III: 6.52, II: 7.00, V: 7.37, IV: 8.00)

[1] Cc1ccc(-c2cccnc2)c(C(=O)N2CCC[C@@]2(C)c2nc3ccc(Cl)c(C)c3[nH]2)c1 [Ex. 5.217]
[2] Cc1cccc(C(=O)N2CCC[C@@]2(C)c2nc3cc(C(F)(F)F)ccc3[nH]2)c1-n1nccn1 [Ex. 5.179]
[3] C=C1CC(c2nc3cccc(SC)c3[nH]2)N(C(=O)c2nc(C3CC3)sc2-c2cccc(C)c2)C1 (racemic) [Ex. 6.87]
[4] C=C1C[C@@H](c2nc3cc(Cl)c(C(F)(F)F)cc3[nH]2)N(C(=O)c2nc(C)ccc2-n2cccn2)C1 [Ex. 6.189]
-- ask In this exercise, place the 4 molecules in ascending sequence of their recorded pIC50. Your task in answering is to list the labels in the requested order.
-- reply 2, 1, 4, 3
